Measured values drawn from ChEMBL document CHEMBL5500322 for this set.

# experimental-details: Binding affinity to Mycobacterium tuberculosis Malate synthase assessed as inhibition constant
Field: pKi. Provide a value for each of the compounds that follow.
Numbers only, as −log10 of the molar value.

Known pKi results, listed for orientation:
[[record]]
compound = "O=C(O)C(=O)O"
val = 3.40

[[record]]
compound = "O=CC(=O)O [GLYOXYLATE]"
val = 3.05


# context switch: different compound, same pKi
Reported pKi, compound C=C(OP(=O)(O)O)C(=O)O [PHOSPHOENOLPYRUVATE] : ____ 3.70
